These entries and their values trace back to patent US7435815B2.

- Target Of Assay: human orexin-1 receptor (Homo sapiens)
- Construct: expressed in transfected cells; host or cells: CHO cells (G418 selection)
- Sequence (O43613 1-425): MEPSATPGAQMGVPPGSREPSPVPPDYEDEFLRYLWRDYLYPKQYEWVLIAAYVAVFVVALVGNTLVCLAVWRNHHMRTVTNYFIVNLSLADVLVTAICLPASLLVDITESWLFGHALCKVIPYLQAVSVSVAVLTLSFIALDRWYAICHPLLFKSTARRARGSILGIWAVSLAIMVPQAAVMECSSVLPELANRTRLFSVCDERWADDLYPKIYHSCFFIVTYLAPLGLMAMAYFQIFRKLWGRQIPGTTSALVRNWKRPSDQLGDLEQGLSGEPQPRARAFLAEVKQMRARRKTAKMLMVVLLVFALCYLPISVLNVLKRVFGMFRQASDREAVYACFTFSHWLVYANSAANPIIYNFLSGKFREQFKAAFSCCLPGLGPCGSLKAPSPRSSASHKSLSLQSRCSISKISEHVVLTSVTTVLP
- Measurement Protocol: Intracellular calcium measurements (FLIPR), orexin receptor antagonistic activity, OX1
- Format: cell-based
- Experimental Context: CHO cells expressing the human orexin-1 receptor, agonist 10 nM human orexin-A
pIC50: −log10 of the molar value.
Observed Property: pIC50

Some compounds with recorded pIC50:
[
  {
    "Smiles Record": "CCN(Cc1ccccn1)C(=O)CN(c1ccc(C)cc1)S(=O)(=O)c1ccc(C(C)(C)C)cc1",
    "Observed Property": "pIC50",
    "Measured Result": 5.99
  },
  {
    "Smiles Record": "CCN(Cc1cccc(O)c1)C(=O)CN(c1ccccc1OC)S(=O)(=O)c1ccccc1C",
    "Observed Property": "pIC50",
    "Measured Result": 6.08
  },
  {
    "Smiles Record": "CCN(Cc1ccccc1)C(=O)CN(c1ccc(OC)nc1)S(=O)(=O)c1ncccc1C",
    "Observed Property": "pIC50",
    "Measured Result": 5.27
  },
  {
    "Smiles Record": "CN(C)c1cccc(N(CC(=O)N(CCO)Cc2ccccn2)S(=O)(=O)c2ccc(C(C)(C)C)cc2)c1",
    "Observed Property": "pIC50",
    "Measured Result": 6.48
  },
  {
    "Smiles Record": "CCN(Cc1cccc(C)n1)C(=O)CN(c1ccc(C)cc1)S(=O)(=O)c1ccc(C(C)(C)C)cc1",
    "Observed Property": "pIC50",
    "Measured Result": 6.38
  },
  {
    "Smiles Record": "CCN(Cc1ccccc1)C(=O)CN(c1ccccc1OC)S(=O)(=O)c1ccccc1C",
    "Observed Property": "pIC50",
    "Measured Result": 6.45
  }
]

[I] CCN(Cc1cccc(C)n1)C(=O)CN(c1ccc(OC)nc1)S(=O)(=O)c1ccccc1C
[II] CCN(Cc1cccc(C)n1)C(=O)CN(c1cccc(N(C)C)c1)S(=O)(=O)c1ccc(C(C)(C)C)cc1
stdin: I need your help: which of the pair I , II has higher pIC50? Indicate which entry you chose by stating its label.
stdout: II
(II: 7.25, I: 5.06)

[I] CCN(Cc1ccccc1)C(=O)CN(c1ccc(OC)nc1)S(=O)(=O)c1ccccc1C
[II] CCN(Cc1ccccc1)C(=O)CN(c1ccccc1OC)S(=O)(=O)c1ncccc1C
stdin: Kindly identify the item with the lower pIC50 figure among these two: I and II Indicate which entry you chose by stating its label.
stdout: II
(II: 5.37, I: 6.05)

* * *

- Target Of Assay: human orexin-2 receptor (Homo sapiens, UniProt O43614)
- Sequence (O43614 1-444): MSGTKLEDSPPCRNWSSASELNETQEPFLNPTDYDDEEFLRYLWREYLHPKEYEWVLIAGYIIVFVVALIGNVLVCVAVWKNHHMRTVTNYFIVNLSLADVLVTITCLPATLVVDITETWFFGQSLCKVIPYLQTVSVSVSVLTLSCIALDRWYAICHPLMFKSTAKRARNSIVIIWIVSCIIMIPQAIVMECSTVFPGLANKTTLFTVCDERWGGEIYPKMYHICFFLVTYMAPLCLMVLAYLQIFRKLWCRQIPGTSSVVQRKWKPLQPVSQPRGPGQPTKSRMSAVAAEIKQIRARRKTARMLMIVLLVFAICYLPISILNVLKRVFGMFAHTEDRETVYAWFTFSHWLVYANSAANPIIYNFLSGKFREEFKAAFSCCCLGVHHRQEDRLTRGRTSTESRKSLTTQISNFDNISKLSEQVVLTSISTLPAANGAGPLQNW
- Measurement Protocol: Intracellular calcium measurements (FLIPR), orexin receptor antagonistic activity, OX2
- Experimental Context: CHO cells expressing the human orexin-2 receptor, agonist 10 nM human orexin-A
Observed Property: IC50 (nM)

Some compounds with recorded IC50:
[
  {
    "Smiles Record": "CCN(CCC#N)C(=O)CN(c1ccc(C)cc1)S(=O)(=O)c1ccc(C(C)(C)C)cc1",
    "Unit Abbreviation": "nM",
    "Measured Result": 3
  },
  {
    "Smiles Record": "CCN(Cc1cccc(C)n1)C(=O)CN(c1ccc(C)cc1)S(=O)(=O)c1ccc(C(C)(C)C)cc1",
    "Unit Abbreviation": "nM",
    "Measured Result": 5
  },
  {
    "Smiles Record": "CCN(Cc1cccc(C)n1)C(=O)CN(c1ccc(OC)nc1)S(=O)(=O)c1ccccc1C",
    "Unit Abbreviation": "nM",
    "Measured Result": 2
  }
]

[A] CCN(Cc1ccccc1)C(=O)CN(c1ccc(OC)nc1)S(=O)(=O)c1ccccc1C
[B] CCN(Cc1cccc(C)n1)C(=O)CN(c1cccc(N(C)C)c1)S(=O)(=O)c1ccc(C(C)(C)C)cc1
stdin: I need your help: which of the pair A , B has higher IC50? Indicate which entry you chose by stating its label.
stdout: B

* * *

- Target Of Assay: human orexin-2 receptor (Homo sapiens, UniProt O43614)
- Sequence (O43614 1-444): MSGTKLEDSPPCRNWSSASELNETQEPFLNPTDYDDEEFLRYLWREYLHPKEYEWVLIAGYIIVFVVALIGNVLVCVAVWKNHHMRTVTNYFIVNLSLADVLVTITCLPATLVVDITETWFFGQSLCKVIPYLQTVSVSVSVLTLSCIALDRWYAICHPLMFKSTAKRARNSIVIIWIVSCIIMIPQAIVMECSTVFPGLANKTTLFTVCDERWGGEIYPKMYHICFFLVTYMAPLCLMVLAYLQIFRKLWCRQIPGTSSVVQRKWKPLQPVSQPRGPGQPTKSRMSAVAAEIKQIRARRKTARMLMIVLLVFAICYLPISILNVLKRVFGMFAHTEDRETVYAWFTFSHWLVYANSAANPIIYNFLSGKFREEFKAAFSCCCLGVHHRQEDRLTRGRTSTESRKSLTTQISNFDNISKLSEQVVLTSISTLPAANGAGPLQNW
- Measurement Protocol: Intracellular calcium measurements (FLIPR), orexin receptor antagonistic activity, OX2
- Experimental Context: CHO cells expressing the human orexin-2 receptor, agonist 10 nM human orexin-A
Observed Property: IC50 (nM)

[
  {
    "Compound": "CCN(Cc1ccccn1)C(=O)CN(c1ccc(OC)nc1)S(=O)(=O)c1ccccc1C [Example 163]",
    "IC50 (nM)": 4
  },
  {
    "Compound": "CN(C)c1cccc(N(CC(=O)N(CCO)Cc2ccccn2)S(=O)(=O)c2ccc(C(C)(C)C)cc2)c1 [Example 111]",
    "IC50 (nM)": 5
  },
  {
    "Compound": "CCN(Cc1cccc(O)c1)C(=O)CN(c1ccccc1OC)S(=O)(=O)c1ccccc1C [Example 158]",
    "IC50 (nM)": 5
  },
  {
    "Compound": "CCN(Cc1ccccc1)C(=O)CN(c1ccccc1OC)S(=O)(=O)c1ncccc1C [Example 185]",
    "IC50 (nM)": 4
  },
  {
    "Compound": "CCN(Cc1ccccc1)C(=O)CN(c1ccccc1OC)S(=O)(=O)c1ccccc1C [Example 47]",
    "IC50 (nM)": 4
  },
  {
    "Compound": "CCN(Cc1ccccc1)C(=O)CN(c1ccc(OC)nc1)S(=O)(=O)c1ncccc1C [Example 207]",
    "IC50 (nM)": 4
  },
  {
    "Compound": "CCN(Cc1ccccn1)C(=O)CN(c1ccc(C)cc1)S(=O)(=O)c1ccc(C(C)(C)C)cc1 [Example 66]",
    "IC50 (nM)": 4
  }
]
